Sourced from ChEMBL document CHEMBL1201862

# measurement-protocol: non-specific 3'UTR reporter inhibition in Clone20-Shn3RL – cell-based, Renilla luciferase, cherry-picked, counter-screen for Shn3 inhibitor project, dose response (AID 624133)
# Format: functional
Calls of active or inactive are those of the source.
Kindly supply the reported AC50 values for the records listed here.

// below: answered molecules
Cc1cc2c(cc(C(=O)OC(C(=O)NC3CCCCC3)C(C)C)n2C)o1 (centres undefined) : 7.23 µM (active)
O=C(Nc1ccc(-c2nc3ccccc3o2)cc1)c1ccc(N2CCOCC2)c([N+](=O)[O-])c1 : 3.62 µM (active)
O=C(O)c1cccc(COc2ccc(CO)cc2Cl)c1 : 35 µM (active)

Read the next record carefully.
Qu. Name the recorded AC50 of the item O=C(c1cc(COc2ccc3ncccc3c2)on1)N1CCCCCC1 in your answer.
Ans. 23.4 µM (active)

###

# experimental-target: Rac GTPase-activating protein 1 (Homo sapiens)
# Sequence (Q9H0H5 whole entry): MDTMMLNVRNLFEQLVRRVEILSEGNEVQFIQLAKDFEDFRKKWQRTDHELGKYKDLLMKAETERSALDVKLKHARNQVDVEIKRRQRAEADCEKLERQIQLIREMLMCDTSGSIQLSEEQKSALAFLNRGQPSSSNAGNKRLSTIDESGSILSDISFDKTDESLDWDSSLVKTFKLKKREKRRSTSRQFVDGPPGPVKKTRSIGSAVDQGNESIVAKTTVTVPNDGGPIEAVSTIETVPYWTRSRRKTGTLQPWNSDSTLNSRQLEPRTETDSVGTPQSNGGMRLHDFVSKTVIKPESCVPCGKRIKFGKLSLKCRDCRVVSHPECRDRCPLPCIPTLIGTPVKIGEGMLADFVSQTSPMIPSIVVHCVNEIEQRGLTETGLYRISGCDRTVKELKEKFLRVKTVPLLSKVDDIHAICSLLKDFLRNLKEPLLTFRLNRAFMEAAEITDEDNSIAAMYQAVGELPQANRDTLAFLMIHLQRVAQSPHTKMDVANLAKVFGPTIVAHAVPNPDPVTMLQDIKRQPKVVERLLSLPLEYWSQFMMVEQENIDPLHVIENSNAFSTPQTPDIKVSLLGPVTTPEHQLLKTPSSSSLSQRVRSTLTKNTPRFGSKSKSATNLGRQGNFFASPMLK
# measurement-protocol: blockers of MgcRacGAP-driven Rac1 GTP hydrolysis – biochemical, ADP Hunter fluorescence, primary and confirmatory, confirmation (AID 624330)
# Type: functional
The source made the active and inactive calls.
measure: IC50

// below: answered compounds
O=C(Nc1ccc(O)cc1)c1ccc(C(=O)c2ccccc2)o1 : 19.5 µM (active)
CCOCCCn1c(=O)c2ccccc2n2c(S)nnc12 : 21.9 µM (active)
O=C(O)c1cc(O)c2c(c1)[C@@H]([C@H]1c3cc(C(=O)O)cc(O)c3C(=O)c3c(O[C@@H]4O[C@H](CO)[C@@H](O)[C@H](O)[C@H]4O)cccc31)c1cccc(OC3O[C@H](CO)[C@@H](O)[C@H](O)[C@H]3O)c1C2=O (stereo not given in full) : 12 µM (active)

Could I get IC50 for every one of these entries?
1. COc1ccccc1CN1CCN(C(=O)c2ccncc2)CC1
2. COc1cccc(CNc2ccc3c(c2)ncn3C)c1OC
3. CN1CCCN(Cc2ccccc2C(F)(F)F)CC1
4. COc1cc(/C=C/C(=O)OCC(=O)N2CC3(C)CC2CC(C)(C)C3)ccc1O (stereo not given)
5. COc1cccc(/C=C2\C(=O)C(=O)c3ccccc32)c1
6. CCc1ccccc1N=C(S)NCC1CCN(c2ccc(OC)cc2)C1 (stereo not given)
7. O=C(CNC(=O)c1ccc2c(c1)OCCO2)N/N=C/c1ccc(O)cc1O

Ans.
["120 µM (active)", "99.4 µM (active)", "83.3 µM (active)", "49.6 µM (active)", "47.3 µM (active)", "43.3 µM (active)", "160 µM (active)"]

###

# experimental-target: Streptokinase A (Streptococcus pyogenes serotype M1, UniProt P10520)
# Sequence (P10520 whole entry): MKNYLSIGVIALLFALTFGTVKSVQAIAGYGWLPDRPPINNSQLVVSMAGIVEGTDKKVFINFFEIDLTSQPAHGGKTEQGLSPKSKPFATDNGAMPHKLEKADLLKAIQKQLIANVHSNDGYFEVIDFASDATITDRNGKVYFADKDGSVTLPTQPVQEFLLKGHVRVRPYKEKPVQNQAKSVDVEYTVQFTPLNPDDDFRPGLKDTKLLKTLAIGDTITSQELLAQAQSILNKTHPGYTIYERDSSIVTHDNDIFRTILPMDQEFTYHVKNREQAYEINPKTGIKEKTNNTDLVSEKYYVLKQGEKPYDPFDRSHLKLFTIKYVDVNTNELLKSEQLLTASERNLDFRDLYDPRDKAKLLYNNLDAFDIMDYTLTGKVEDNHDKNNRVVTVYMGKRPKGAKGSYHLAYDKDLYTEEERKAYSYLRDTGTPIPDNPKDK
# measurement-protocol: viability-normalized secreted streptokinase activity reduction – plasminogen activation absorbance, OD405, dose response (AID 1914);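 further: secreted streptokinase activity via plasminogen activation per viability signal from cell pellet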
# Assay type: functional, Streptococcus pyogenes M1 GAS
Active and inactive are the calls of the source.
Kindly supply the reported EC50 values for the records listed here.

Oc1ccccc1/C=N/NC(=S)NC1CC2CCC1C2 (configuration not stated) : > 150 µM (not active)
O=C(Nc1nc(-c2ccccn2)cs1)C12CC3CC(CC(O)(C3)C1)C2 : > 150 µM (not active)
O=[N+]([O-])c1ccc(-c2nc(-c3cccs3)c(-c3cccs3)[nH]2)cc1 : 20.1 µM (active)
CC(C)c1c(C(=O)N/N=C/c2cccc(OCc3ccc(F)cc3)c2)nnn1-c1nonc1N : 2.1 µM (active)

Could I get EC50 for every one of these entries?
1. COc1ccc(N2CCN(C(=O)Cc3csc(NC(=O)Nc4ccccc4OC)n3)CC2)cc1
2. CCOC(=O)C(=NC(C)(C)C)NNc1cc(Cl)ccc1Cl

Ans.
["> 150 µM (not active)", "7.59 µM (active)"]

Qu. Check Streptokinase A (Streptococcus pyogenes serotype M1, UniProt P10520) data and give EC50 for CC1CC(C)CN(Cc2nc(N)nc(Nc3ccc4ccccc4c3)n2)C1 (configuration not stated) .
Ans. > 150 µM (not active)

###

# experimental-target: Exodeoxyribonuclease V (Escherichia coli (strain K12), UniProt P04993+P07648+P08394)
# Sequence (P04993 whole entry): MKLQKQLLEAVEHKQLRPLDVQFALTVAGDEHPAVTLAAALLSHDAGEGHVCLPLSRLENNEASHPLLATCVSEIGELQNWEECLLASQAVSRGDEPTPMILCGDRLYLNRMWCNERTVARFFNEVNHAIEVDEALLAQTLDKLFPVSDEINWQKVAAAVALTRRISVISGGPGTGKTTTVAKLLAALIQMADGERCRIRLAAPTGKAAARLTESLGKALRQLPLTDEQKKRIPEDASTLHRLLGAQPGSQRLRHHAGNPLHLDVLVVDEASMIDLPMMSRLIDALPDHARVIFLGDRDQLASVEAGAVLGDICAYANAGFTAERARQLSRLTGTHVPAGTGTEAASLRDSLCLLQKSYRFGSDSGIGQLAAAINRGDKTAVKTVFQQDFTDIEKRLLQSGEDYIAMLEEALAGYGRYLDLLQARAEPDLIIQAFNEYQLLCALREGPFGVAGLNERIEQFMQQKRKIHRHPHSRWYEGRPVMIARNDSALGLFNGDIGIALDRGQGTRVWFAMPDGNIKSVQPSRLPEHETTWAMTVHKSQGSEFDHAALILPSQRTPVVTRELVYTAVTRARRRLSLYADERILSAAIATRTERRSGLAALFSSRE
# Sequence (P07648 whole entry): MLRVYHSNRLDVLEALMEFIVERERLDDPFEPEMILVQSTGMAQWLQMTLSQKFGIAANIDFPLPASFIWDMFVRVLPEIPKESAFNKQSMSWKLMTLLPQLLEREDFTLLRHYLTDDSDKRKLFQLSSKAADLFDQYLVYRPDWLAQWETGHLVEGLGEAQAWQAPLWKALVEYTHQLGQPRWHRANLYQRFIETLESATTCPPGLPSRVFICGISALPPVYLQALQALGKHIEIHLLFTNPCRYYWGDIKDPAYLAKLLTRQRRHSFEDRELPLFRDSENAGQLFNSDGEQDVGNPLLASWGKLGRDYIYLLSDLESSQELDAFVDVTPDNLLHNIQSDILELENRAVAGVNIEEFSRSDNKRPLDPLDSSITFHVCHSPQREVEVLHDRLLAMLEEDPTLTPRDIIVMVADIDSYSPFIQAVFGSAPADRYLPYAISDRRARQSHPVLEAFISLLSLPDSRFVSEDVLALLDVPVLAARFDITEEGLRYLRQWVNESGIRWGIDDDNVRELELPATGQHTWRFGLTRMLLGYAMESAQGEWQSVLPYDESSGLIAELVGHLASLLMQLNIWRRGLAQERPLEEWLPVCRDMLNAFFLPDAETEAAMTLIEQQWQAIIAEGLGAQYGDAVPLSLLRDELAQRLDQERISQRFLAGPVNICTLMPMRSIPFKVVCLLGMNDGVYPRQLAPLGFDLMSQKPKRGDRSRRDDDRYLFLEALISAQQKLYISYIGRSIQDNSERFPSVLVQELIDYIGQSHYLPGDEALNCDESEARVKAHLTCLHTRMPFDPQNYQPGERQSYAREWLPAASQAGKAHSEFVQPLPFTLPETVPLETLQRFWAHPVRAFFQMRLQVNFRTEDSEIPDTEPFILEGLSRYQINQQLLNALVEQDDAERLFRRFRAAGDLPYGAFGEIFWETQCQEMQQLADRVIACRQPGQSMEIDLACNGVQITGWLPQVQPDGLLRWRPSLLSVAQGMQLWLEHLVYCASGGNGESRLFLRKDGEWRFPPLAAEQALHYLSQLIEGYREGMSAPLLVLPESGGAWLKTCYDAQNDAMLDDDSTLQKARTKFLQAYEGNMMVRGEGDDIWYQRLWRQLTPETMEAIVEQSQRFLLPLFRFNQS
# Sequence (P08394 whole entry): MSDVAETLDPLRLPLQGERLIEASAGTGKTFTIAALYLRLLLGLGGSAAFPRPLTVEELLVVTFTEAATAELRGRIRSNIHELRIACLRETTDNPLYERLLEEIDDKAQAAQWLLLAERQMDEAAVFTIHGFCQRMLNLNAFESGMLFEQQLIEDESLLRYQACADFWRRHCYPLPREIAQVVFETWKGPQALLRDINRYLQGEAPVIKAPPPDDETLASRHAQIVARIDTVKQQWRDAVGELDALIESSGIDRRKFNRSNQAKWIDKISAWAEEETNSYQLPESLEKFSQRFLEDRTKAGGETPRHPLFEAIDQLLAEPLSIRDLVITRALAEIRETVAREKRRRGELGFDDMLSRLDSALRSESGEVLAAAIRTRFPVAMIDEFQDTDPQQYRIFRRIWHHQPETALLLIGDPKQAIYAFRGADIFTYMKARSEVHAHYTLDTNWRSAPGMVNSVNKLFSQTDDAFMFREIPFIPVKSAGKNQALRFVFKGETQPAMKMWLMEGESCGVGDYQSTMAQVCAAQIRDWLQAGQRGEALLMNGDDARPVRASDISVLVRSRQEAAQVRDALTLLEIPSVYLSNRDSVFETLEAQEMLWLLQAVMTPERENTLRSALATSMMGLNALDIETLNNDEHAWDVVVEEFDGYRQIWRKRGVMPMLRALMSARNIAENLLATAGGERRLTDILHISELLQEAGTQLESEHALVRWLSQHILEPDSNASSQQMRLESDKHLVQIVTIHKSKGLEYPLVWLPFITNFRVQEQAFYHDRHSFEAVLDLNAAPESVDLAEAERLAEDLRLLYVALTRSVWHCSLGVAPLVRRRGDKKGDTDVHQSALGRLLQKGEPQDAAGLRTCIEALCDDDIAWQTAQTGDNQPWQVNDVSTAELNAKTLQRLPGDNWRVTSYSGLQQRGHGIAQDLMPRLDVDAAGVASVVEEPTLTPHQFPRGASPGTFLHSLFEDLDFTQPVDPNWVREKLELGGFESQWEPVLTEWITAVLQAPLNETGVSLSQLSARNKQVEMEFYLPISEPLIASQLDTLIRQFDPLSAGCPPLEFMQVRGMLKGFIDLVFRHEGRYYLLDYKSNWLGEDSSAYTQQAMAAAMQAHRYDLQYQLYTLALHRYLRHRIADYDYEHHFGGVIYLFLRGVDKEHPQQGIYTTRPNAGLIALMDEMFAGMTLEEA
# measurement-protocol: RecBCD inhibition via phage-restricted bacterial growth – absorbance, V66 E. coli, mutant T4 phage, counter-screen for AddAB inhibitor project, dose response (AID 492957)
# Type: functional, cell-based, Escherichia coli str. K-12 substr. MG1655
Activity calls are given as the source filed them.
measure: IC50

// below: answered compounds
Cc1cc(Cl)ccc1N=C(S)NCc1ccccc1Cl : > 119 µM (inactive)
Cc1cc(NS(=O)(=O)c2ccc(N)cc2)no1 [SULFAMETHOXAZOLE] : > 119 µM (inactive)

Could I get IC50 for every one of these entries?
1. COc1ccc(NC(=O)CSc2nnc(-c3ccc(F)cc3)o2)cn1
2. CCC(C)NC(=O)c1cn(CC)c2cc(N3CCN(C(=O)c4ccco4)CC3)c(F)cc2c1=O (stereo unspecified)
3. O=C(O)c1cn(-c2ccc(N3CCCC3)c(F)c2)c2c(F)c(F)c(F)cc2c1=O
4. CCCC(=O)NC(c1cccs1)c1cc(Cl)c2cccnc2c1O (stereo unspecified)

Ans.
1. > 119 µM (inactive)
2. 89.9 µM (inactive)
3. > 119 µM (inactive)
4. > 119 µM (inactive)

###

# experimental-target: Prothrombin (Bos taurus, UniProt P00735)
# measurement-protocol: thrombin protease inhibitors – biochemical, fluorescence polarization, uHTS hits, dose response (AID 602369)
# Format: functional
Active and inactive are the calls of the source.
Assign a class; possible classes are Yes for active, No for inactive

O=C(CC1OC(=O)c2ccccc21)Nc1cc(Cl)ccc1N1CCCC1 (stereo not given) : No
C#CCn1/c(=N/C(=O)c2cccs2)sc2cccc(OC)c21 : No
COC(=O)c1ccc(COc2ccc(/C=C(\C#N)c3nc4ccccc4[nH]3)cc2OC)o1 : Yes
Cc1sc2nc(CSCC(=O)Nc3ccccc3C#N)[nH]c(=O)c2c1C : Yes

API: the following record is the query input.
Qu. Please indicate how the test categorized Cc1cccc2sc(NC(=O)C3CCCN(S(=O)(=O)c4cccc5nonc45)C3)nc12 (stereo not given) .
Ans. Yes

###

# experimental-target: BDNF/NT-3 growth factors receptor (Homo sapiens);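 further: NTRK2 measured as one member of a broad kinome-wide kinase profiling panel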
# Sequence (Q16620 whole entry): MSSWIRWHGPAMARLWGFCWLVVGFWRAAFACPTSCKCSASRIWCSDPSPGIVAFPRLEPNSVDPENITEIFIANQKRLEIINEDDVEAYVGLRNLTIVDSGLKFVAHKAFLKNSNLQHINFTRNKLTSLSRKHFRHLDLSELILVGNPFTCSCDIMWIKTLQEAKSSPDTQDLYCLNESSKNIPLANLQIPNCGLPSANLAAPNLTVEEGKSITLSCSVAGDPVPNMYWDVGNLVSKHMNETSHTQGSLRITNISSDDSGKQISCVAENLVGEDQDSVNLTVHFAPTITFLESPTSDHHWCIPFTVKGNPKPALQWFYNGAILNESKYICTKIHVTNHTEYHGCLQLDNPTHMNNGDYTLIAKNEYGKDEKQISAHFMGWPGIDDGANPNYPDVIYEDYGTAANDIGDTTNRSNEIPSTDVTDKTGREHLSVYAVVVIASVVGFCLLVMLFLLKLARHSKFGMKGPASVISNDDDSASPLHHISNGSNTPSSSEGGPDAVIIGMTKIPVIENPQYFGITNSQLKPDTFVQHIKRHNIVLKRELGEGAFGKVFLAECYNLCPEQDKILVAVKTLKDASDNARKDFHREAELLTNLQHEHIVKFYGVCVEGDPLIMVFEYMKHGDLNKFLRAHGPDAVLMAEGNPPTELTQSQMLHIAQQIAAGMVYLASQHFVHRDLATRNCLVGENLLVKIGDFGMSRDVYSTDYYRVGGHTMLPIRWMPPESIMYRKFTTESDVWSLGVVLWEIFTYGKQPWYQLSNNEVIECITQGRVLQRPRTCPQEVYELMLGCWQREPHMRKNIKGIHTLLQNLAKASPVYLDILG
# Assay type: functional
Active and inactive are the calls of the source.
Kindly supply the reported Ki values for the records listed here.

// below: answered molecules
O=C(Nc1cccc(C2Nc3ccc4ccccc4c3C3C=CCC32)c1)c1ccc(F)cc1 (centres undefined) : > 3.98 µM (inactive)
CN(C)CC1CCn2cc(c3ccccc32)C2=C(C(=O)NC2=O)c2cn(c3ccccc23)CCO1 (centres undefined) : > 3.98 µM (inactive)

Could I get Ki for every one of these entries?
1. O=C1NCc2ccc(-c3ccccc3)cc21
2. Cc1ccc(-c2cc(-c3cc(Br)ccc3O)[nH]c(=O)c2C#N)s1

Ans.
1: 25.1 µM (active); 2: 3.16 µM (active)

###

# experimental-target: Nuclear receptor subfamily 0 group B member 1 (Homo sapiens);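 further: HEK293T cells transfected with SF-1 and DAX-1 plus StAR promoter luciferase reporter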
# Sequence (P51843 whole entry): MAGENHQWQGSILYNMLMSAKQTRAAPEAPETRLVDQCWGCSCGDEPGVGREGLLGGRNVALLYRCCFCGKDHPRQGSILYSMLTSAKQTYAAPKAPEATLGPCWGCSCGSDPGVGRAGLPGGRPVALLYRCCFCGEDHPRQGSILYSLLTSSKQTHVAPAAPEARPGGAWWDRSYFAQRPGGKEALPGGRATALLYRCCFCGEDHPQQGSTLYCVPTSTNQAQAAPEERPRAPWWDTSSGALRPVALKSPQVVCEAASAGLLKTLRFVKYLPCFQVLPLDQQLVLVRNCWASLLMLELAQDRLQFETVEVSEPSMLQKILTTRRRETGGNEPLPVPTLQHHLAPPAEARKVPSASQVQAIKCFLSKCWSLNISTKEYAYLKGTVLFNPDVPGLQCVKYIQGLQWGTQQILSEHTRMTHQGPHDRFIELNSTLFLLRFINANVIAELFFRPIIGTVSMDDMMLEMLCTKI
# Type: functional, cell-based
Activity calls are given as the source filed them.
measure: IC50

// below: answered compounds
CCOC(=O)N1CCN(C(=O)c2ccc3oc(CCCc4ccccc4)nc3c2)CC1 : > 67500 nM (inactive)
C=C(c1ccc2[nH]c(NC(=O)OC)nc2c1)c1cccs1 : 2720 nM (active)
O=C(N/N=C/C(Br)=C\c1ccccc1)c1[nH]nc2c1CCC2 : > 834 nM (active)

Read the next record carefully.
Qu. Name the recorded IC50 of the item c1ccc(Nc2nnc(-c3ccc4c(c3)OCO4)o2)cc1 in your answer.
Ans. > 92.6 nM (active)

###

# experimental-target: Cytochrome P450 2C19 (Homo sapiens, UniProt P33261)
# measurement-protocol: Cytochrome panel assay with activity outcomes. Panel member name: p450-cyp2c19 Compounds with AC50 equal or less than 10 uM are considered active
# Format: functional
# condition: read-out: AC50
Kindly supply the reported AC50 values for the records listed here.

// below: answered compounds
COc1ccc(C2N(c3ccccn3)C(=O)C3CCCN32)c(OC)c1 (centres undefined) : 28.2 µM (inconclusive)
CCn1c(O)c(C(c2ccccn2)c2c(O)n(CC)c(=S)[nH]c2=O)c(=O)[nH]c1=S : 0.00562 µM (inconclusive)
Cc1ccccc1N1CCN(C(=O)c2ccccc2NC(=O)/C=C\C(=O)O)CC1 : 28.2 µM (inconclusive)
COc1ccc(N2CC(C(=O)OCC(=O)c3cccc(OC)c3)CC2=O)cc1 (centres undefined) : 8.91 µM (inconclusive)
Cc1ncc(CSC(=N)N)n1Cc1ccccc1 : 7.94 µM (inconclusive)
CCCC(=O)Nc1c(C)n[nH]c1C : 3.98 µM (inconclusive)
COc1ccccc1CNc1ccnc(-c2ccc(C(=O)N(C)C)cc2)n1 : 39.8 µM (inconclusive)
COc1cc2c(cc1OC)/C(=C/C(=O)N1CCOCC1)NC(C)(C)C2 : 22.4 µM (inconclusive)
CCSc1ccc2c(c1)N(CCCN1CCN(C)CC1)c1ccccc1S2 : 3.16 µM (inconclusive)
CC(C)CC(=O)O/N=C1\C(=O)N(c2ccccc2)c2ccccc21 : 5.62 µM (inconclusive)

Could I get AC50 for every one of these entries?
1. CC(=O)c1cc(C)ccc1OC(=O)CCN1C(=O)C2C3c4ccccc4C(c4ccccc43)C2C1=O (centres undefined)
2. CCOC(=O)Nc1nc(-c2ccccc2)c(C)s1
3. COc1ccc2c(c1O)-c1cccc3c1[C@H](C2)N(C)CC3
4. COc1[nH]nc2nncnc12

Ans.
1: 10 µM (inconclusive); 2: 3.98 µM (inconclusive); 3: 7.94 µM (inconclusive); 4: 15.8 µM (inconclusive)
